Source of measurements: the NIST ThermoML archive (doi:10.1021/je700297c)

assay: activity coefficient (dimensionless); of the first substance listed, at infinite dilution; xn = mol fraction of the nth substance listed; conditions: 333 K; Liquid; Chromatography; x1 = 0
Mark fulfilled for activity coefficient under 1, not fulfilled if at or over.

Please review the entries below; each comes with its answer.
{"molecule": "C1CCCCC1 [cyclohexane] + CCCCCCCCCCCCCCCC(=O)[O-].CCCCn1cc[n+](C)c1", "assigned-category": "fulfilled"}
{"molecule": "c1ccsc1 [thiophene] + CCCCCCCCCCCCCCCC(=O)[O-].CCCCn1cc[n+](C)c1", "assigned-category": "fulfilled"}
{"molecule": "CCCCCCCC [octane] + CCCCCCCCCCCCCCCCCC(=O)[O-].CCCCn1cc[n+](C)c1", "assigned-category": "not fulfilled"}
{"molecule": "c1ccccc1 [benzene] + CCCCCCCCCCCCCCCC(=O)[O-].CCCCn1cc[n+](C)c1", "assigned-category": "fulfilled"}

Data request: Identify whether the molecule CCCCCCCC [octane] + CCCCCCCCCCCCCCCC(=O)[O-].CCCCn1cc[n+](C)c1 records activity coefficient below 1.
Data returned: not fulfilled

Data request: Identify whether the molecule C1CCOC1 [tetrahydrofuran] + CCCCCCCCCCCCCCCCCC(=O)[O-].CCCCn1cc[n+](C)c1 records activity coefficient below 1.
Data returned: fulfilled

Data request: Identify whether the molecule CCOC(C)=O [ethyl acetate] + CCCCCCCCCCCCCCCCCC(=O)[O-].CCCCn1cc[n+](C)c1 records activity coefficient below 1.
Data returned: not fulfilled

Data request: Identify whether the molecule CCCCCC [hexane] + CCCCCCCCCCCCCCCC(=O)[O-].CCCCn1cc[n+](C)c1 records activity coefficient below 1.
Data returned: not fulfilled

Data request: Identify whether the molecule CCCCCCC [heptane] + CCCCCCCCCCCCCCCC(=O)[O-].CCCCn1cc[n+](C)c1 records activity coefficient below 1.
Data returned: not fulfilled

Data request: Identify whether the molecule CO [methanol] + CCCCCCCCCCCCCCCCCC(=O)[O-].CCCCn1cc[n+](C)c1 records activity coefficient below 1.
Data returned: fulfilled

Data request: Identify whether the molecule C=CCCCCCC [oct-1-ene] + CCCCCCCCCCCCCCCC(=O)[O-].CCCCn1cc[n+](C)c1 records activity coefficient below 1.
Data returned: not fulfilled

###

assay: activity coefficient (dimensionless); of the first substance listed, at infinite dilution; xn = mol fraction of the nth substance listed; details: 333 K; Liquid; Chromatography; x1 = 0
Each entry below lists one item and its recorded activity coefficient value.
No unit in the answer, please; the number alone is enough.

Below, 5 molecules whose answers are already recorded.
{"molecule": "CCO [ethanol] + CCCCCCCCCCCCCCCC(=O)[O-].CCCCn1cc[n+](C)c1", "activity coefficient": 0.4}
{"molecule": "CCCCCC [hexane] + CCCCCCCCCCCCCCCCCC(=O)[O-].CCCCn1cc[n+](C)c1", "activity coefficient": 1.4}
{"molecule": "C1CCCCC1 [cyclohexane] + CCCCCCCCCCCCCCCCCC(=O)[O-].CCCCn1cc[n+](C)c1", "activity coefficient": 1.2}
{"molecule": "CC1CCCCC1 [methylcyclohexane] + CCCCCCCCCCCCCCCC(=O)[O-].CCCCn1cc[n+](C)c1", "activity coefficient": 1}
{"molecule": "CO [methanol] + CCCCCCCCCCCCCCCC(=O)[O-].CCCCn1cc[n+](C)c1", "activity coefficient": 0.3}

Reported activity coefficient ( C=CCCCC [hex-1-ene] + CCCCCCCCCCCCCCCC(=O)[O-].CCCCn1cc[n+](C)c1 ) = 1.1

Reported activity coefficient ( C1CCOC1 [tetrahydrofuran] + CCCCCCCCCCCCCCCC(=O)[O-].CCCCn1cc[n+](C)c1 ) = 0.6

Reported activity coefficient ( c1ccsc1 [thiophene] + CCCCCCCCCCCCCCCCCC(=O)[O-].CCCCn1cc[n+](C)c1 ) = 0.8
